Assay Overview: Cytotoxicity against human HuH7 cells expressing luc/neo after 72 hrs by MTT assay
Type: cell-based, Huh-7

| Compound | Censoring Qualifier | CC50 at 72 h / µM |
| --- | --- | --- |
| NC(=NO)c1ccccc1 [BENZAMIDOXIME] | > | 800 |
| O=C(NO)c1cc([N+](=O)[O-])ccc1O | > | 1000 |
| N/C(=N\O)c1ccccc1O | = | 500 |
| O=C(NO)c1cccc(Br)c1 | = | 310 |
| O=C(NO)c1ccc(Cl)cc1 | = | 55 |

* * *

Assay Overview: Cytotoxicity against human HuH7 cells expressing luc/neo after 72 hrs by MTT assay
Format: cell-based, Huh-7
Criterion: CC50 at 72 h strictly under 300 µM. Met: met. Not met: not met.

| Entry Smiles | Cat |
| --- | --- |
| COc1cc(C)ccc1C(=O)NO | not met |
| O=C(NO)c1cccc(Cl)c1 | met |
| COCc1ccccc1C(=O)NO | not met |
| O=C(NO)c1ccccc1Br | met |
| O=C(NO)c1cccc([N+](=O)[O-])c1 | met |
| CONC(=O)c1ccccc1 | not met |
| O=C(NO)c1ccccc1OCCOc1ccccc1C(=O)NO | not met |
| COc1ccccc1C(=O)N(C)O | not met |
| Cc1cccc(C(=O)NO)c1 | not met |
| O=C(NO)c1ccc([N+](=O)[O-])cc1 | met |
| COc1ccc(C(=O)NO)cc1 | met |
| COc1cccc(OC)c1C(=O)NO | not met |
| CONC(=O)c1ccccc1OC | not met |
| O=C(NO)c1ccc(Br)cc1 | met |
| Cc1ccccc1C(=O)NO | not met |
